- target-of-assay: Recombinant human BACE-1 (Homo sapiens)
- Construct: purchased R&D Systems
- Sequence (P56817 46-501): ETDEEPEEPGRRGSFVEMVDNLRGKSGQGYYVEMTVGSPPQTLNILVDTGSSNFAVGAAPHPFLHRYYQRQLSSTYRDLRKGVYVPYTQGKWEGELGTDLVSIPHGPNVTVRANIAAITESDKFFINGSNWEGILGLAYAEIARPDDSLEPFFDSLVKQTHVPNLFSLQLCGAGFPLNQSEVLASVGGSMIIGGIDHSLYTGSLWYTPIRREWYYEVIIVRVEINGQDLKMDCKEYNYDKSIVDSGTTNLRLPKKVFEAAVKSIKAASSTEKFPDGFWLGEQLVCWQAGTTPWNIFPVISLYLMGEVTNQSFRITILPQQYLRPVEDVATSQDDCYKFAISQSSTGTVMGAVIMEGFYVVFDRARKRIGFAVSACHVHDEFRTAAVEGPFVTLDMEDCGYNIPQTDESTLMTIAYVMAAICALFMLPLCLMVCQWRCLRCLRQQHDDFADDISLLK
- assay-explanation: Assay of BACE1 inhibitory activity
- Format: biochemical
- test-context: Recombinant human BACE1 7.4 nmol/L, substrate peptide 18 nmol/L, pH 5.0, 30° C. for 3 hours; read-out: IC50 (50% inhibitory concentration against the enzymatic activity)

| molecule | IC50 |
| --- | --- |
| CC1(c2cc(NC(=O)c3ccc(C#N)cn3)ccc2F)Cc2cncn2C(N)=N1 (stereo not drawn) | ≤ 1 µM |
| C[C@@]1(c2cc(NC(=O)c3ccc(C#N)cn3)ccc2F)Cc2nccn2C(N)=N1 | ≤ 1 µM |
| C[C@@]1(c2cc(-c3cccnc3F)ccc2F)Cc2nccn2C(N)=N1 | ≤ 1 µM |
| C[C@@]1(c2cc(NC(=O)c3ccc(C#N)cn3)ccc2F)Cc2ccnn2C(N)=N1 | 0.036 µM |
| CC1(c2cc(-c3cccnc3F)ccc2F)Cc2cncn2C(N)=N1 (stereo not drawn) | ≤ 1 µM |
| CC#Cc1cncc(-c2csc([C@]3(C)Cc4nccn4C(N)=N3)c2)c1 | ≤ 1 µM |

###

IC50 overview
- Tested on: Neuroblastoma SH-SY5Y cells (SH/APPwt) with human wild-type β-APP excessively expressed
- assay-explanation: Measurement of β-amyloid (Aβ) production inhibiting effect in cell
- Assay type: cell-based
- test-context: 24 hours incubation, Amyloid β 1-40 HTRF in culture supernatant, read-out: IC50 (amount needed to inhibit Aβ production by 50%)
parameter-measured: IC50

| compound | parameter-measured | result |
| --- | --- | --- |
| CC#Cc1cncc(-c2csc([C@]3(C)Cc4nccn4C(N)=N3)c2)c1 [Compound I-4] | IC50 | ≤ 1000 nM |
| C[C@@]1(c2cc(-c3cccnc3F)ccc2F)Cc2nccn2C(N)=N1 [Compound I-2] | IC50 | ≤ 1000 nM |
| C[C@@]1(c2cc(NC(=O)c3ccc(C#N)cn3)ccc2F)Cc2ccnn2C(N)=N1 [Compound I-3] | IC50 | 3 nM |
| CC1(c2cc(-c3cccnc3F)ccc2F)Cc2cncn2C(N)=N1 (stereo not drawn) [Compound I-7] | IC50 | ≤ 1000 nM |
| C[C@@]1(c2cc(NC(=O)c3ccc(C#N)cn3)ccc2F)Cc2nccn2C(N)=N1 [Compound I-1] | IC50 | ≤ 1000 nM |
| CC1(c2cc(NC(=O)c3ccc(C#N)cn3)ccc2F)Cc2cncn2C(N)=N1 (stereo not drawn) [Compound I-6] | IC50 | ≤ 1000 nM |
